# assay-comment: Pharmacokinetic and oral bioavailability in the rat
# Type: in vivo, Sprague-Dawley rats
# condition-context: Sprague-Dawley, plasma, oral gavage 10-30 mg/kg vs intravenous bolus 2-5 mg/kg
experimental-endpoint: bioavailability

Ask | Reported bioavailability, compound CCCNc1nc(NC)nc2c(NCCC)nc(NC)nc12.Cl : ____
Reply | 38%

----------
# assay-comment: In vitro metabolic stability in human liver microsomes (HLM)
# condition-context: both, human, microsomes
Structures can show the parent of a compound that is named as a salt.
experimental-endpoint: half-life at 5 μM
Phrase the answer as number then unit, nothing more needed.

Ask | What value of half-life at 5 μM has been reported for the following compound? CCCNc1nc(NCCC(F)(F)F)nc2c(NCCC)nc(NC)nc12 [Compound 39a, hydrochloride]
Reply | 238 min

----------
# assay-comment: in vitro
# condition-context: male, rat, microsomes
Where a name gives a salt, the structure may show the parent alone.
experimental-endpoint: log10(half-life at 5 μM) (log10 of the value in h)
Base-10 log of half-life at 5 μM, unit h.

Past entries and their recorded results:
CCNc1nc(NC)c2nc(NCC)nc(NC)c2n1.Cl [Compound 81a]
0.66
CCCNc1nc(NC)c2nc(-c3ccc(F)cc3)nc(NC)c2n1 [Compound 112a]
0.24

Ask | Recorded log10(half-life at 5 μM) of CCCNc1nc(N2CCCCC2)nc2c(NCCC)nc(NC)nc12 [Compound 43a] , please.
Reply | 0.06

Ask | // query log10(half-life at 5 μM) value for entry CNc1nc(NCC2CC2)nc2c(NC)nc(NCC3CC3)nc12.Cl [Compound 85a]
Reply | 0.81

Ask | Please report the recorded log10(half-life at 5 μM) for CCCNc1nc(-c2ccc(F)cc2)nc2c(NCCC)nc(NC)nc12 [Compound 114a] .
Reply | 0.62

Ask | GET /values?readout=log10(half-life at 5 μM)&item= CCCNc1nc(N(C)OC)nc2c(NCCC)nc(N(C)OC)nc12 [Compound 19a, hydrochloride]
Reply | 0.25

Ask | So what does the record say about log10(half-life at 5 μM) for CCCNc1nc(N(C)OC)nc2c(NCCC)nc(NC)nc12.Cl [Compound 24a] ?
Reply | 0.43

Ask | Would you mind telling me what log10(half-life at 5 μM) value was observed for CCCNc1nc(NCC)nc2c(NCCC)nc(NCC)nc12 [Compound 137a] ?
Reply | 0.21

Ask | Value lookup for log10(half-life at 5 μM); key = CCCCc1nc(NCCC)c2nc(NC)nc(NCCC)c2n1 [Compound 118a]
Reply | -0.25

----------
experimental-endpoint: melting point

These recorded examples may help you get a feel for the data.
CCCNc1nc(NC2CC2)nc2c(NCCC)nc(NC3CC3)nc12
210 to 212 °C
CNc1nc(NCC2CC2)nc2c(NC)nc(NCC3CC3)nc12.Cl [Compound 85a]
264 to 265 °C
CCCNc1nc(NC)nc2c(NCCC)nc(NC)nc12.Cl
229 to 232 °C
CCCNc1nc(NCCC)c2nc(NCCC)nc(NCCC)c2n1.Cl
208 to 211 °C
CNc1nc(NCC2CC2)nc2c(NC)nc(NCC3CC3)nc12
264 to 268 °C

Ask | Name the recorded melting point for CCCNc1nc(NC)c2nc(C(=O)O)nc(NC)c2n1 .
Reply | 218 to 220 °C

----------
# assay-comment: In vitro metabolic stability in human liver microsomes (HLM)
# condition-context: both, human, liver microsomes
Counter-ions that a name gives are not always drawn.
Each entry gets f if its half-life at 5 μM stays under 2 h, and t if its half-life at 5 μM is 2 h or above.

CCCNc1nc(NCc2cccc(Cl)c2C)nc2c(NCCC)nc(NC)nc12 [Compound 49a, hydrochloride]
t
CNc1nc(N(C)NC)nc2c(NC)nc(N(C)NC)nc12
f
CCCNc1nc(N2CCC(OC)CC2)nc2c(NCCC)nc(NC)nc12 [Compound 47a]
f
CCCNc1nc(N(CC)CC)nc2c(NCCC)nc(NC)nc12.Cl [Compound 31a]
t
CCCNc1nc(NCCC)c2nc(NCCC)nc(NCCC)c2n1.Cl
t

Ask | Is it the case that CCCNc1nc(-c2ccc(F)cc2)nc2c(NCCC)nc(NC)nc12 [Compound 114a] has half-life at 5 μM reaching or exceeding 2 h?
Reply | t

Ask | Item CCCCc1nc(NCCC)c2nc(NC)nc(NCCC)c2n1 [Compound 118a] with half-life at 5 μM of 2 h or above?
Reply | f

Ask | Is half-life at 5 μM for CNc1nc(NCC2CC2)nc2c(NC)nc(NCC3CC3)nc12.Cl [Compound 85a] at or above 2 h?
Reply | t

Ask | Is half-life at 5 μM for CCCNc1nc(NCCOC(C)C)nc2c(NCCC)nc(NC)nc12 [Compound 37a] at or above 2 h?
Reply | t

Ask | Hi team, for CCCNc1nc(NCCO)nc2c(NCCC)nc(NC)nc12 [Compound 33a] , is the recorded half-life at 5 μM at or above 2 h?
Reply | f

Ask | Identify whether the reported half-life at 5 μM of the following compound is 2 h or greater: CNc1nc(N(C)NC)nc2c(NC)nc(N(C)C)nc12 [Compound 93a]
Reply | f

----------
# assay-comment: in vitro
# condition-context: male, rat, microsomes
Structures can show the parent of a compound that is named as a salt.
Recorded half-life at 5 μM by entry
Express the result in h but write the number alone.

Example cases with answers are listed next.
CCCNc1nc(NCCOC(C)C)nc2c(NCCC)nc(NC)nc12 [Compound 37a]
1.27
CCCNc1nc(NC)nc2c(NCCC)nc(NC)nc12.Cl
4.55
CCCCNc1nc(NC)c2nc(NCCCC)nc(NC)c2n1.Cl [Compound 83a]
5.58
CCCNc1nc(NCCC)c2nc(NCCC)nc(NCCC)c2n1.Cl
6.93

--- query ---
Ask | Requested read-out: half-life at 5 μM. Entry: CCCNc1nc(NCc2cccc(Cl)c2C)nc2c(NCCC)nc(NC)nc12 [Compound 49a, hydrochloride]
Reply | 1.4

----------
# assay-comment: physchem
# condition-context: organic solvent or mixture, thermodynamic from solid, r.t.
experimental-endpoint: solubility

Ask | For the compound CNc1nc(NCC2CC2)nc2c(NC)nc(NCC3CC3)nc12.Cl [Compound 85a] , what solubility is on record?
Reply | < 50 mg/mL

----------
# assay-comment: In vitro metabolic stability in human liver microsomes (HLM)
# condition-context: both, human, liver microsomes
Documented half-life at 5 μM across a set of compounds
Please respond with the number in h and leave the unit unwritten.

C#CCNc1nc(NC)nc2c(NCCC)nc(NC)nc12.Cl [Compound 13a]
5.7
CCNc1nc(NC)c2nc(NCC)nc(NC)c2n1.Cl [Compound 81a]
3.3
CCCNc1nc(NCc2ccc(F)cc2)nc2c(NCCC)nc(NC)nc12 [Compound 53a]
1.32

Now for a further compound.
Ask | Record request: half-life at 5 μM value, item CCCNc1nc(NCC)nc2c(NCCC)nc(NCC)nc12 [Compound 137a]
Reply | 3.78

----------
# assay-comment: physchem
# condition-context: organic solvent or mixture, thermodynamic from solid, Reflux
experimental-endpoint: solubility

Ask | I would be grateful if you could share the reported solubility for CNc1nc(NCC2CC2)nc2c(NC)nc(NCC3CC3)nc12.Cl [Compound 85a] .
Reply | > 50 mg/mL

----------
Listing of entries alongside the reported log10 of half-life at 5 μM.
# assay-comment: in vitro
# condition-context: male, rat, microsomes
On a log10 scale: recorded half-life at 5 μM, unit h.

Ask | # lookup: log10 of half-life at 5 μM of CCCNc1nc(NCc2ccc(F)cc2)nc2c(NCCC)nc(NC)nc12 [Compound 53a]
Reply | 0.20

Ask | If you can, please state the reported log10 of half-life at 5 μM value of CCCNc1nc(NCCOC)nc2c(NCCC)nc(NC)nc12 [Compound 35a] .
Reply | 0.23

Ask | Query: log10 of half-life at 5 μM; subject: CCCCNc1nc(NCCC)c2nc(NCCCC)nc(NCCC)c2n1.Cl [Compound 8a]
Reply | 0.74

Ask | Can you look up the measured log10 of half-life at 5 μM of CNc1nc(N(C)NC)nc2c(NC)nc(N(C)C)nc12 [Compound 93a] for me?
Reply | -0.63

Ask | What does the record list as log10 of half-life at 5 μM for CCCNc1nc(NCCO)nc2c(NCCC)nc(NC)nc12 [Compound 33a] ?
Reply | 0.25

Ask | Look up log10 of half-life at 5 μM for this compound: CCCNc1nc(NCC2CC2)nc2c(NCCC)nc(NCC3CC3)nc12 [Compound 140a]
Reply | -0.08

Ask | Need log10 of half-life at 5 μM of CCCNc1nc(NC)c2nc(Cl)nc(NC)c2n1 [Compound 54] , thanks.
Reply | -0.18

Ask | May I ask what log10 of half-life at 5 μM has been recorded for CCCNc1nc(NC2CC2)nc2c(NCCC)nc(NC3CC3)nc12 [Compound 138] ?
Reply | 0.74
